system under test: Fbw7 (UniProt Q969H0 263-707, limits assumed)
Sequence (Q969H0 263-707 limits assumed): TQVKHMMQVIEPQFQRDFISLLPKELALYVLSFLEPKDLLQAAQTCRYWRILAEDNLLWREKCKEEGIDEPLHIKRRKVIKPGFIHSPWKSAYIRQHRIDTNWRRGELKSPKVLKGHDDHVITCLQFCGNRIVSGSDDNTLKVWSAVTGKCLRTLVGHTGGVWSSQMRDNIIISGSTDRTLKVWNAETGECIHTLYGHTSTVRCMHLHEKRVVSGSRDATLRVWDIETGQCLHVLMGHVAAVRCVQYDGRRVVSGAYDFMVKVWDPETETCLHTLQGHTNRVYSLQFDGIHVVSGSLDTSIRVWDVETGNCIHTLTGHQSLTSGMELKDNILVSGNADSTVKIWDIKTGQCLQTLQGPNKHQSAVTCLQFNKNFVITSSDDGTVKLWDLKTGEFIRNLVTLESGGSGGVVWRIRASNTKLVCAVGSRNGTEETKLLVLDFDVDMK
assay method text: cell-based or functional assay
Non-standard residues stand in square brackets, D forms with d. *: point of attachment. Benzenesulfonyl(4-OMe) = COc1ccc(S(=O)(=O)*)cc1; 2Naphthylsulfonyl = O=S(=O)(c1ccc2ccccc2c1)*; 3,4‑(MeO)2‑PhSO2 = COc1ccc(S(=O)(=O)*)cc1OC; Phe(3-Cl) = N[C@@H](Cc1cccc(Cl)c1)C(=O)O; Phe(3-F) = N[C@@H](Cc1cccc(F)c1)C(=O)O; Tos = Cc1ccc(S(=O)(=O)*)cc1; Propionyl = CCC(=O)*; Bz = O=C(c1ccccc1)*
Please go through the items and note down their % Inhibition Fbw7 @ (100 µM).
Your answer is read as %, so omit the unit and give the number.

Query block: Look up % Inhibition Fbw7 @ (100 µM) of 2Naphthylsulfonyl-[dD]EG[Phe(3-F)]WE-NH2 (SMILES NC(=O)[C@H](CCC(=O)O)NC(=O)[C@H](Cc1c[nH]c2ccccc12)NC(=O)[C@H](Cc1cccc(F)c1)NC(=O)CNC(=O)[C@H](CCC(=O)O)NC(=O)[C@@H](CC(=O)O)NS(=O)(=O)c1ccc2ccccc2c1, also called UBP031) [2-NaphthylSO2-dEGF(3F)WE-NH2] and report it.
Result block: 11

Query block: Respond only with % Inhibition Fbw7 @ (100 µM) recorded for {Benzenesulfonyl(4-OMe)}-[dD]EG[Phe(3-F)]WE-NH2 (SMILES COc1ccc(S(=O)(=O)N[C@H](CC(=O)O)C(=O)N[C@@H](CCC(=O)O)C(=O)NCC(=O)N[C@@H](Cc2cccc(F)c2)C(=O)N[C@@H](Cc2c[nH]c3ccccc23)C(=O)N[C@@H](CCC(=O)O)C(N)=O)cc1, also called UBP022) [4-(MeO)-PhSO2-dEGF(3F)WE-NH2]
Result block: 18

Query block: Given the binder Bz-[dD]EG[Phe(3-F)]WE-NH2 (also called UBP018) [Bz-dEGF(3F)WE-NH2] , write its reported % Inhibition Fbw7 @ (100 µM).
Result block: 5

Query block: Output measured % Inhibition Fbw7 @ (100 µM) for this item: Propionyl-[dD]EG[Phe(3-F)]WE-NH2 (also called UBP019) [Et(CO)-dEGF(3F)WE-NH2]
Result block: 10

Query block: Determine from records and report % Inhibition Fbw7 @ (100 µM) for {3,4‑(MeO)2‑PhSO2}-[dD]EG[Phe(3-F)]WE-NH2 (SMILES COc1ccc(S(=O)(=O)N[C@H](CC(=O)O)C(=O)N[C@@H](CCC(=O)O)C(=O)NCC(=O)N[C@@H](Cc2cccc(F)c2)C(=O)N[C@@H](Cc2c[nH]c3ccccc23)C(=O)N[C@@H](CCC(=O)O)C(N)=O)cc1OC, also called UBP029) [3,4-(MeO)2-PhSO2-dEGF(3F)WE-NH2]
Result block: 0

Query block: Provide one value: measured % Inhibition Fbw7 @ (100 µM) of Tos-[dD]EG[Phe(3-F)]WE-NH2 (SMILES Cc1ccc(S(=O)(=O)N[C@H](CC(=O)O)C(=O)N[C@@H](CCC(=O)O)C(=O)NCC(=O)N[C@@H](Cc2cccc(F)c2)C(=O)N[C@@H](Cc2c[nH]c3ccccc23)C(=O)N[C@@H](CCC(=O)O)C(N)=O)cc1, also called UBP021) [Ts-dEGF(3F)WE-NH2]
Result block: 0

Query block: Read off the recorded % Inhibition Fbw7 @ (100 µM) for Tos-[dD]EG[Phe(3-Cl)]WE-NH2 (SMILES Cc1ccc(S(=O)(=O)N[C@H](CC(=O)O)C(=O)N[C@@H](CCC(=O)O)C(=O)NCC(=O)N[C@@H](Cc2cccc(Cl)c2)C(=O)N[C@@H](Cc2c[nH]c3ccccc23)C(=O)N[C@@H](CCC(=O)O)C(N)=O)cc1, also called UBP034) [Ts-dEGF(3Cl)WE-NH2]
Result block: 6

Numbers sourced from patent US20190106460A1.
